The origin of these recorded values is PubChem BioAssay AID1851.

assay.target: Cytochrome P450 2C9 (Homo sapiens)
assay.summary: Cytochrome panel assay with activity outcomes
condition.details: recombinant CYP, pro-luciferin dealkylation, luminescence, p450-cyp2c9; series mostly up to 57.1 µM
Among all 16,000 compounds or so, about 4,000 (25%) were called active. About 26% were inconclusive and are not listed. Calls come from the whole dose curve; as a rule, active = well fitted curve in the direction sought with a large enough effect; inconclusive = small, poorly fitted or top-dose-only effect, or effect the other way; inactive = no such curve, though single readings can be large or run the other way. A selection follows.
Labels: active, inactive

CC(=O)NC1(c2ccc(F)cc2)CCN(C(=O)Nc2ccc(F)cc2F)CC1 :: inactive
Cc1ccc(NC(=O)c2sccc2SCc2cccc(C(F)(F)F)c2)cc1 :: active
CCOC(=O)Nc1ccc2c(c1)N(C(=O)CCN1CCN(C)CC1)c1ccccc1S2 :: inactive
Cc1ccc(NC(=O)c2c(C(F)(F)F)nn(C)c2SCc2cccc(C(F)(F)F)c2)cc1C :: active
CCOc1cc(CNCCc2ccc(S(N)(=O)=O)cc2)cc(Cl)c1OCc1ccccc1 :: active
CCc1ccc(NC(=O)Cn2nc(C(F)(F)F)c3c2CCC3)cc1 :: inactive

====

assay.target: Cytochrome P450 2C9 (Homo sapiens)
assay.summary: Cytochrome panel assay with activity outcomes
condition.details: recombinant CYP, pro-luciferin dealkylation, luminescence, p450-cyp2c9; series mostly up to 57.1 µM
Out of some 16,000 compounds screened, about 4,000 (25%) were called active. About 26% were inconclusive and are not listed. Calls come from the whole dose curve; as a rule, active = well fitted curve in the direction sought with a large enough effect; inconclusive = small, poorly fitted or top-dose-only effect, or effect the other way; inactive = no such curve, though single readings can be large or run the other way. Only a sample is shown.
Outcome codes: active, inactive

Cn1cc(-c2nc3cnc(Oc4ccccc4)nc3n(Cc3cccs3)c2=O)c2ccccc21 :: inactive
COc1ccc(-n2cnc3sc(-c4ccccc4)cc3c2=O)cc1 :: inactive
N=C1/C(=C\c2ccc(SCc3ccco3)o2)C(=O)N=C2SC=NN12 :: active
O=[N+]([O-])c1ccccc1/C=N/n1c(COc2ccccc2)n[nH]c1=S :: active
COCCN1CN=C(Nc2nc3ccccc3s2)NC1 :: inactive
O=[N+]([O-])c1ccc(/C=N/n2c(COc3ccccc3)n[nH]c2=S)cc1 :: active
Cc1nc2cnc(Nc3ccccc3)nc2n(Cc2cccs2)c1=O :: inactive
COc1ccc(Oc2ncc3ncc(=O)n(Cc4cccs4)c3n2)cc1 :: active
CN1CCN(c2ncc3ncc(=O)n(Cc4cccs4)c3n2)CC1 :: inactive
COc1cc(C(=O)NCCC(=O)NCc2ccc3c(c2)OCO3)cc(OC)c1OC :: inactive
CC(C)NC[C@@H](O)COc1cccc2ccccc12 :: inactive
COc1ccc(Nc2ncnc3sc(-c4ccccc4)cc23)cc1 :: active

====

assay.target: Cytochrome P450 2C9 (Homo sapiens) (UniProt P11712)
Sequence (P11712 whole entry, looked up): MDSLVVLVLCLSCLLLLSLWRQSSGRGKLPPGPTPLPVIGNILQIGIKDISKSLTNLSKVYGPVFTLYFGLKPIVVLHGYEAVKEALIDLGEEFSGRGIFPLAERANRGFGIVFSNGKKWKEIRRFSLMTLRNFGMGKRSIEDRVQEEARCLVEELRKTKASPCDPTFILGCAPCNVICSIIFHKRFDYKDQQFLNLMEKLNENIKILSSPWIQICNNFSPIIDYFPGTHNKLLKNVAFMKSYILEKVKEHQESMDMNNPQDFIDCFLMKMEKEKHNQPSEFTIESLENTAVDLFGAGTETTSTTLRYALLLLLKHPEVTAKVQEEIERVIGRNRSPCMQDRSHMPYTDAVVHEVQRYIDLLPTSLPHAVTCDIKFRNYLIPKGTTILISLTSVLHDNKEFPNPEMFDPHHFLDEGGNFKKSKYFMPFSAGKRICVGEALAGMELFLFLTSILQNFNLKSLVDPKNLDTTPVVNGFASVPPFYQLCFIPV
assay.summary: Cytochrome panel assay with activity outcomes
condition.details: recombinant CYP, pro-luciferin dealkylation, luminescence, p450-cyp2c9; series mostly up to 57.1 µM
Out of some 16,000 compounds screened, about 4,000 (25%) were called active. About 26% were inconclusive and are not listed. Calls come from the whole dose curve; as a rule, active = well fitted curve in the direction sought with a large enough effect; inconclusive = small, poorly fitted or top-dose-only effect, or effect the other way; inactive = no such curve, though single readings can be large or run the other way. These entries were drawn from the full list.
Labels: 1 for active, -1 for inactive

CCCCOc1ccccc1C1CC(=O)NC2=C1C(=O)CCC2 (configuration not stated) :: 1
COc1ccc(-n2c(=O)c(C)nc3cnc(N4CCNCC4)nc32)cc1 :: -1
O=C(Nc1ccc(S(=O)(=O)N2CCOCC2)cc1)c1ccc(CN2CCc3ccccc3C2)cc1 :: 1
O=C(CSc1ncccn1)Nc1ccc(S(=O)(=O)N2CCCCC2)cc1 :: 1
Cc1ccc(C(=O)/C=C2\NCC(C)NC2=O)cc1 (configuration not stated) :: -1
Cc1n[nH]c(=O)nc1NCc1ccccc1Cl :: -1
C=C(NC(=O)C(=C)NC(=O)c1csc(C2=N[C@@H]3c4csc(n4)[C@@H]4NC(=O)c5csc(n5)[C@@H]([C@](C)(O)[C@H](C)O)NC(=O)[C@@H]5CSC(=N5)/C(=C/C)NC(=O)[C@@H]([C@H](C)O)NC(=O)c5csc(n5)[C@]3(CC2)NC(=O)[C@@H](C)NC(=O)C(=C)NC(=O)[C@@H](C)NC(=O)[C@@H]([C@@H](C)CC)N[C@H]2C=Cc3c([C@H](C)O)cc(nc3[C@@H]2O)C(=O)O[C@H]4C)n1)C(N)=O :: -1
CCOC(=O)C1=C(C)NC2(O)c3ccccc3C(=O)C12O (configuration not stated) :: -1
Cc1ccc(NCCC(=O)c2ccc(Cl)cc2)cc1C :: -1
CC(=O)N1CCC2(CC1)CN(C(=O)Nc1cccc(C#N)c1)C2 :: -1
COc1ccccc1S(=O)(=O)Nc1ccc(-c2nnc3n2CCCCC3)cc1 :: -1
Cc1nc2ncnn2c(C)c1CCC(=O)Nc1ccc(S(=O)(=O)N2CCCCCC2)cc1 :: 1
CNC(=S)NNC(=O)c1sccc1OCc1ccc(C)cc1 :: -1
COc1ccc(C[C@@](C)(N)C(=O)O)cc1OC :: -1
CCCOc1ccccc1C1CC(=O)NC(C)=C1C(=O)OCC(C)C (configuration not stated) :: 1
Cc1ccc(NC(=O)CCc2c(C)nc3ncnn3c2C)nc1 :: -1
CCOC(=O)c1cccc(C(=O)OCC)n1 :: -1
O=C(/C=C/c1ccccc1)NC(NC(=S)Nc1ccc(Cl)cc1)C(Cl)(Cl)Cl (configuration not stated) :: 1
COc1ccc(COc2ccsc2C(=O)Nc2ccc(Cl)c(Cl)c2)cc1 :: 1
CCCC(C(=O)Nc1nccs1)c1ccccc1 (configuration not stated) :: 1
COc1cccc2c1OC1(C)CC2/C(=C(\C)O)C(=O)N1 (configuration not stated) :: -1
Cn1c(=O)c2c(ncn2CC(COCc2ccccc2Cl)OCc2ccccc2Cl)n(C)c1=O (configuration not stated) :: 1
Cn1c(=O)c2c(ncn2C[C@@H](O)CO)n(C)c1=O :: -1
CC(C)(C)NS(=O)(=O)c1ccc(NS(=O)(=O)c2ccc(F)cc2)cc1 :: 1
O=c1c(-c2nnc(SCc3ccc(Cl)cc3Cl)o2)cccn1Cc1ccccc1 :: 1
Cn1c(=O)n(CCC(=O)O)c2ccccc21 :: -1
COc1ccc(-n2c(=O)cnc3cnc(OC)nc32)cc1 :: -1
Cc1ccc(C(=O)/C=C/c2c[nH]c3ccccc23)cc1 :: 1
CCC1(c2ccccc2)C(=O)NCNC1=O :: -1
O=C(Nc1ccccc1)N1CC[C@@]2(CCCN(C(=O)c3cnccn3)C2)C1 :: -1
COc1ccc(Oc2ncc3nc(CCc4ccccc4)c(=O)n(C)c3n2)cc1 :: 1
CCCOc1ccccc1-c1nc2n[nH]nc2c(=O)[nH]1 :: -1
